Kd overview
target: T1, human Complement Factor D (CFD), purified from human serum (human, UniProt P00746 26-253); experiment: SPR MX96, mAbs amine-coupled, CFD injected
T1 construct: serum purified (CompTech A136); also called serum purified CFD; hCFD-Comptech
T1 sequence (P00746 26-253): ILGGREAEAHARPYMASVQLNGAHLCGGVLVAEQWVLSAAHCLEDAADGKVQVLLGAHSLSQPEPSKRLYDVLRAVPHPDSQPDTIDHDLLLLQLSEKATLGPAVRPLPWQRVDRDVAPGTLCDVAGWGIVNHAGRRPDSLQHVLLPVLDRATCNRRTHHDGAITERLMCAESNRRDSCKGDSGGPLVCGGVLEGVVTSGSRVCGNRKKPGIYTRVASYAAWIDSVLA
Form entry: value (nM) — number only.

>  <binder>
KCD133 (antibody, V domains shown) VH: EVQLVESGGGLLQPKGSLKLSCAASGFTFNTYAMNWVRQAPGKGLEWVARIRSKSSNYATYYADSVKDRFTISRDDSQSMFYLEMNNLKTEDTAMYYCVRDRGYYYVMDYWGQGTSVTVSS VL: DIVLTQSPASLAVSLGQRATISCRASESVEYYGTSLMQWYQQKPGQPPKLLINAASNVESGVPARFSGSGSGTDFSLNIHPVEEDDIAMYFCQQSRKVPWTFGGGTKLEIK

>  <Kd, nM>
11.5

$$$$
>  <binder>
KCD033 (antibody, V domains shown) VH: EVQLQQSGPELVKPGASMKISCTASGYSFTGYTMTWVKQSHGKNLEWIGLINPYNGGTNYNQKFKGKATLTVDKSSSIAYMELLSLTSEDSAVYYCARRHYGSNWDYWGQGTTLTVSS VL: DIKLTQSPSSIYTSLGERVTITCKASQDINTYLSWFQQRPGKSPKTLIYRADRLVDGVPSRVRGSGSGQDYSLTISSLEYEDMGIYYCLQYDEFPYTFGGGTKLEIK

>  <Kd, nM>
10.9

$$$$

Kd lookup needed for KCD065 (antibody, V domains shown) VH: QVQLQQSGAELARPGASVKMSCKASGYTFTTYTIHWVKQRPGQGLEWIGYINPSSDFTNYNQNFADKATLTADRSSSTAYMQLSSLTSEESAVYYCAIRLGYDRQGWYFDVWGAGTTVTVSS VL: DIVMTQSHKFLSTSLGDRVSITCKASQDVGSAVAWYQQKPGQSPDLLIYWTFTRHTGVPDRFTGSRSGTDFTLTISNVQSGDLADYFCQQYSNYPLTFGGGTKLEIK , thanks.
3.28

Kd lookup needed for KCD121 (antibody, V domains shown) VH: EVQLQQSGPELVKPGASVKISCKASGYTFTDYYKNWMRQRHGESLEWIGDINPNNGDTSYNQKFRGKATLTVDKSSSTAFMELRSLTSEDSAVYYCAREGPSFAYWGQGTLVTVSA VL: DVLMTQTPLSLPVSLGDQASISCRSNQTIVHSNGDTYLEWYLQKPGQSPNLLIYKVSNRFSGVPDRFSGSGSGTDFTLRISRVEAEDLGVYYCFQGSHVPPTFGGGTKLEIK , thanks.
1.8

Kd lookup needed for KCD042 (antibody, V domains shown) VH: EVQLQQSGAELVKPGASVRLSCTASGFNIKHTYIHWVSQRPEQGLEWIGKIDPANGNTKYDPKFQGKATITADTSSNTAYLQLSSLTSEDTAVYYCVNAMEYWGQGTSVTVSS VL: QSVLTQSPAIMSASPGEKVTMTCSANSSVSDMYWFQQRPGSSPRLLIYDTSNLASGVPVRFSGSGSGTSYSLTISRMEAEDAATYYCQQWSTYPWTFGGGTKLEIK , thanks.
1.43
